# TARGET ENTITY: acetylcholine receptor
# EXPERIMENTAL DETAILS: SPR, AchR immobilised on CM5 chip, peptide at 10 uM
VALUE TYPE: Binding affinity (RU)

> print(dat)
                binder  reading.unit  readout.number
1  RRRVLR [6mer-1-402]            RU             153

a: RKVRLR [6mer-1-451]
b: KHHIR [5mer-1187]
Could you check which of a and b has a smaller value for Binding affinity (RU)? In your reply, give the label of the chosen option.
b

P: RINWR [5mer-866]
Q: RKVLLK [6mer-1-443]
Of the pair P and Q , name the member with the lesser recorded Binding affinity (RU). # reply format: chosen label
P
(P: 11 RU, Q: 145 RU)

1: RNDAK [5mer-881]
2: KRGFYR [6mer-1-419]
Hello, I am sorting some records. Could you say if 1 or 2 has the smaller Binding affinity (RU) value? // return label of chosen record
1
